- Test system: human liver microsomes, metabolic stability half-life
- PROCEDURE TEXT: NCATS Human Liver Microsomal (HLM) Stability Profiling
- MEASUREMENT SETUP: higher = more stable; screened at 1 µM (by protocol)
Documented half-life across a set of molecules

# MOLECULE, TARGET OR SYSTEM, REPORTED RELATION, half-life [h]
measured = [
    ("COc1ccc(Nc2cc(-c3cnc(N)nc3)nc(N3CCOCC3)n2)cn1", "human liver microsomes, metabolic stability half-life", "=", 0.655),
    ("CCOC(=O)c1cccnc1", "human liver microsomes, metabolic stability half-life", "=", 0.157),
    ("COc1ccc(-c2ccn(CC[C@](C)(C(=O)NO)S(C)(=O)=O)c(=O)c2)c(F)c1", "human liver microsomes, metabolic stability half-life", ">", 2),
    ("Cc1ccc(C(=O)NC2CCN(c3cnn(CC4CC4)c(=O)c3)CC2)cc1C", "human liver microsomes, metabolic stability half-life", ">", 2),
    ("COC(=O)[C@H](Cc1cccc(C(=N)N)c1)[C@@H](C)NC(=O)c1ccc(-c2cc[n+]([O-])cc2)cc1", "human liver microsomes, metabolic stability half-life", ">", 2),
    ("CCOc1ccc(-c2cc(NC(=O)Nc3ccccc3Cl)c(C(=O)OC)s2)cc1", "human liver microsomes, metabolic stability half-life", "=", 0.796),
    ("C[C@]12CC[C@@H]3c4ccc(O)cc4CC[C@H]3[C@@H]1C[C@@H](O)[C@@H]2O", "human liver microsomes, metabolic stability half-life", ">", 2),
    ("COCC(C)N(C(=O)CCl)c1c(C)csc1C (stereo unspecified)", "human liver microsomes, metabolic stability half-life", "=", 0.181),
    ("O=C(O)CCCc1ccccc1", "human liver microsomes, metabolic stability half-life", ">", 2),
    ("CCOC(=O)NNc1nncc2ccccc12", "human liver microsomes, metabolic stability half-life", "=", 1.62),
    ("CN1C(C(=O)Nc2ccccn2)=C(O)c2sccc2S1(=O)=O", "human liver microsomes, metabolic stability half-life", ">", 2),
]
